Target: MBP-FoxP1dN (Mus musculus, UniProt P58462 326-579)
Sequence: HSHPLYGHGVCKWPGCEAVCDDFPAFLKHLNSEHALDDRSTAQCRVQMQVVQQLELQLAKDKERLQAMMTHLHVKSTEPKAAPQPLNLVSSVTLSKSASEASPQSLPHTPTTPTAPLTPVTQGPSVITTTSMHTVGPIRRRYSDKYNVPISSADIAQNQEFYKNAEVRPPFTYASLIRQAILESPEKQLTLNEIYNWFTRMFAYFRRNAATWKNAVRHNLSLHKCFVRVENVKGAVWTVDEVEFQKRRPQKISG
Assay: PD-seq (MBP pull-down with sequencing); 20 mM Tris-HCl pH 7.5, 100 mM NaCl, 1.5 mM MgCl2, 0.4 uM protein, 0.1 uM dsDNA library, 30 min, room temperature, amylose pull-down; high values mean tight binding
Conditions: protein: recombinant; tags: His6-MBP; chain copies: 2; dsDNA, one strand shown
The full ranking holds about 16,000 sequences; the median of “rpm ratio (pull-down/input)” is about 0.94, and the highest 2% start at about 1.7. The sample holds the highest values, similar sequences and a random draw of the others, so the mix is not that of the screen.
READOUT_TYPE: binding signal

Known results for sequences:
• GATGATTGTTCTCCCAGCTGATGAATTATGTCGCTCGAGTAAACAAATTTTCCTAATCTTTCTGTTCAAGCGCCATCTAC = 1.01 RPM ratio (pull-down/input)
• GATGATTGTTCTCCCAGCTGATGAATTTGTTGGGTCGAGTAAACAAATTTTCCTAATCTTTCTGTTCAAGCGCCATCTAC = 1.56 RPM ratio (pull-down/input)
• GATGATTGTTCTCCCAGCTGATGAATTGGTTTGGTCGAGTAAACAAATTTTCCTAATCTTTCTGTTCAAGCGCCATCTAC = 0.947 RPM ratio (pull-down/input)
• GATGATTGTTCTCCCAGCTGATGAATTCTCTGGCTCGAGTAAACAAATTTTCCTAATCTTTCTGTTCAAGCGCCATCTAC = 0.769 RPM ratio (pull-down/input)
• GATGATTGTTCTCCCAGCTGATGAATTCGGACTATCGAGTAAACAAATTTTCCTAATCTTTCTGTTCAAGCGCCATCTAC = 0.87 RPM ratio (pull-down/input)
• GATGATTGTTCTCCCAGCTGATGAATTCTAATCCTCGAGTAAACAAATTTTCCTAATCTTTCTGTTCAAGCGCCATCTAC = 0.781 RPM ratio (pull-down/input)

IN: # input sequence: "GATGATTGTTCTCCCAGCTGATGAATTCTCGTCATCGAGTAAACAAATTTTCCTAATCTTTCTGTTCAAGCGCCATCTAC" ; wanted: its binding signal
OUT: 0.998 RPM ratio (pull-down/input)

----------
Reported binding signal values for a set of sequences
Molecular target: MBP-FoxP1dN (Mus musculus, UniProt P58462 326-579)
Sequence: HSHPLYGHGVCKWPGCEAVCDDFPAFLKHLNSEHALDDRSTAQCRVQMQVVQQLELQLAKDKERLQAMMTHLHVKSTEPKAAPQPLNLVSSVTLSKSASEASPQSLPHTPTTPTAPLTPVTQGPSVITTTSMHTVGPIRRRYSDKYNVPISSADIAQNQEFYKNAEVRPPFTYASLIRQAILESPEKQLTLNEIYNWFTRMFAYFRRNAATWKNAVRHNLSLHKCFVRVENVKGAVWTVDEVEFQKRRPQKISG
Assay: PD-seq (MBP pull-down with sequencing); 20 mM Tris-HCl pH 7.5, 100 mM NaCl, 1.5 mM MgCl2, 0.4 uM protein, 0.1 uM dsDNA library, 30 min, room temperature, amylose pull-down; high values mean tight binding
Details: protein: recombinant; tags: His6-MBP; chain copies: 2; dsDNA, one strand shown
Over roughly 16,000 sequences, “rpm ratio (pull-down/input)” has its median near 0.94; the highest 2% begin near 1.7. The sample as a whole holds a higher share of the highest values than the screen did.

* GATGATTGTTCTCCCAGCTGATGAATTACGTAAATCGAGTAAACAAATTTTCCTAATCTTTCTGTTCAAGCGCCATCTAC | 1.34 RPM ratio (pull-down/input)
* GATGATTGTTCTCCCAGCTGATGAATTTAGTAAATCGAGTAAACAAATTTTCCTAATCTTTCTGTTCAAGCGCCATCTAC | 1.58 RPM ratio (pull-down/input)
* GATGATTGTTCTCCCAGCTGATGAATTTCCTATATCGAGTAAACAAATTTTCCTAATCTTTCTGTTCAAGCGCCATCTAC | 0.903 RPM ratio (pull-down/input)
* GATGATTGTTCTCCCAGCTGATGAATTTGGTTTATCGAGTAAACAAATTTTCCTAATCTTTCTGTTCAAGCGCCATCTAC | 1.32 RPM ratio (pull-down/input)
* GATGATTGTTCTCCCAGCTGATGAATTCTTTTCATCGAGTAAACAAATTTTCCTAATCTTTCTGTTCAAGCGCCATCTAC | 1.07 RPM ratio (pull-down/input)

IN: # input sequence: "GATGATTGTTCTCCCAGCTGATGAATTTGATTTATCGAGTAAACAAATTTTCCTAATCTTTCTGTTCAAGCGCCATCTAC" ; wanted: its binding signal
OUT: 1.23 RPM ratio (pull-down/input)

IN: One more sequence: "GATGATTGTTCTCCCAGCTGATGAATTGCGATAATCGAGTAAACAAATTTTCCTAATCTTTCTGTTCAAGCGCCATCTAC"
OUT: 1.43 RPM ratio (pull-down/input)

----------
Target: MBP-FoxP1dN (Mus musculus, UniProt P58462 326-579)
Sequence: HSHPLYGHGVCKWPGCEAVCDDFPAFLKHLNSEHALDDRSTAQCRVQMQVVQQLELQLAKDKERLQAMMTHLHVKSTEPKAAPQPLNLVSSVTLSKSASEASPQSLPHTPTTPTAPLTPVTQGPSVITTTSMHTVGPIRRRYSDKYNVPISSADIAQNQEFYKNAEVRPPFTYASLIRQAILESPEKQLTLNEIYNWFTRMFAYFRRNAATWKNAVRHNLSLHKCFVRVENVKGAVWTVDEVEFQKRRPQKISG
Assay: PD-seq (MBP pull-down with sequencing); 20 mM Tris-HCl pH 7.5, 100 mM NaCl, 1.5 mM MgCl2, 0.4 uM protein, 0.1 uM dsDNA library, 30 min, room temperature, amylose pull-down; high values mean tight binding
Conditions: protein: recombinant; tags: His6-MBP; chain copies: 2; dsDNA, one strand shown
In all, about 16,000 sequences were measured (“rpm ratio (pull-down/input)”: median about 0.94, highest 2% from about 1.7 on). This excerpt belongs to a sample that is enriched for the highest values.
Reported binding signal values for a set of sequences

Known results for sequences:
* GATGATTGTTCTCCCAGCTGATGAATTGTTGTAATCGAGTAAACAAATTTTCCTAATCTTTCTGTTCAAGCGCCATCTAC | 1.96 RPM ratio (pull-down/input)
* GATGATTGTTCTCCCAGCTGATGAATTCTATACGTCGAGTAAACAAATTTTCCTAATCTTTCTGTTCAAGCGCCATCTAC | 0.962 RPM ratio (pull-down/input)
* GATGATTGTTCTCCCAGCTGATGAATTGTATACATCGAGTAAACAAATTTTCCTAATCTTTCTGTTCAAGCGCCATCTAC | 2.35 RPM ratio (pull-down/input)

Next, consider the following sequence.
IN: # input sequence: "GATGATTGTTCTCCCAGCTGATGAATTCTATACATCGAGTAAACAAATTTTCCTAATCTTTCTGTTCAAGCGCCATCTAC" ; wanted: its binding signal
OUT: 1.08 RPM ratio (pull-down/input)

----------
Target: MBP-FoxP1dN (Mus musculus, UniProt P58462 326-579)
Sequence: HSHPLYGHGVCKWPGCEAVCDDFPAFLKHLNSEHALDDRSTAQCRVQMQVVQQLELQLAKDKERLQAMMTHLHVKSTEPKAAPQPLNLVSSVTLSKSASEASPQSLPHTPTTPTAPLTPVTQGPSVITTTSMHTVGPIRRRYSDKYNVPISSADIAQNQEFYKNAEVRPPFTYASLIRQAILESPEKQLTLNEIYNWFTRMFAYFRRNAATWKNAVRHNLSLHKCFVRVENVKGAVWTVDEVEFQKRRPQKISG
Assay: PD-seq (MBP pull-down with sequencing); 20 mM Tris-HCl pH 7.5, 100 mM NaCl, 1.5 mM MgCl2, 0.4 uM protein, 0.1 uM dsDNA library, 30 min, room temperature, amylose pull-down; high values mean tight binding
Conditions: protein: recombinant; tags: His6-MBP; chain copies: 2; dsDNA, one strand shown
In all, about 16,000 sequences were measured (“rpm ratio (pull-down/input)”: median about 0.94, highest 2% from about 1.7 on). The full list was thinned out, with the highest values kept by preference.
Reported binding signal values for a set of sequences

- GATGATTGTTCTCCCAGCTGATGAATTGCTATGCTCGAGTAAACAAATTTTCCTAATCTTTCTGTTCAAGCGCCATCTAC: 1.01 RPM ratio (pull-down/input)

IN: # input sequence: "GATGATTGTTCTCCCAGCTGATGAATTTGGTTAGTCGAGTAAACAAATTTTCCTAATCTTTCTGTTCAAGCGCCATCTAC" ; wanted: its binding signal
OUT: 0.953 RPM ratio (pull-down/input)

IN: One more sequence: "GATGATTGTTCTCCCAGCTGATGAATTACTATAATCGAGTAAACAAATTTTCCTAATCTTTCTGTTCAAGCGCCATCTAC"
OUT: 1.27 RPM ratio (pull-down/input)

IN: One more sequence: "GATGATTGTTCTCCCAGCTGATGAATTGTTTCTCTCGAGTAAACAAATTTTCCTAATCTTTCTGTTCAAGCGCCATCTAC"
OUT: 1.33 RPM ratio (pull-down/input)

IN: One more sequence: "GATGATTGTTCTCCCAGCTGATGAATTATTTTAGTCGAGTAAACAAATTTTCCTAATCTTTCTGTTCAAGCGCCATCTAC"
OUT: 1.21 RPM ratio (pull-down/input)

IN: One more sequence: "GATGATTGTTCTCCCAGCTGATGAATTTCTACATTCGAGTAAACAAATTTTCCTAATCTTTCTGTTCAAGCGCCATCTAC"
OUT: 0.939 RPM ratio (pull-down/input)

IN: One more sequence: "GATGATTGTTCTCCCAGCTGATGAATTTATTTAGTCGAGTAAACAAATTTTCCTAATCTTTCTGTTCAAGCGCCATCTAC"
OUT: 1.76 RPM ratio (pull-down/input)

IN: One more sequence: "GATGATTGTTCTCCCAGCTGATGAATTCAGCACATCGAGTAAACAAATTTTCCTAATCTTTCTGTTCAAGCGCCATCTAC"
OUT: 0.96 RPM ratio (pull-down/input)

IN: One more sequence: "GATGATTGTTCTCCCAGCTGATGAATTCCCACGATCGAGTAAACAAATTTTCCTAATCTTTCTGTTCAAGCGCCATCTAC"
OUT: 0.81 RPM ratio (pull-down/input)

IN: One more sequence: "GATGATTGTTCTCCCAGCTGATGAATTTGCTATGTCGAGTAAACAAATTTTCCTAATCTTTCTGTTCAAGCGCCATCTAC"
OUT: 1.06 RPM ratio (pull-down/input)

IN: One more sequence: "GATGATTGTTCTCCCAGCTGATGAATTGCTGAGATCGAGTAAACAAATTTTCCTAATCTTTCTGTTCAAGCGCCATCTAC"
OUT: 0.969 RPM ratio (pull-down/input)

IN: One more sequence: "GATGATTGTTCTCCCAGCTGATGAATTTTATTTTTCGAGTAAACAAATTTTCCTAATCTTTCTGTTCAAGCGCCATCTAC"
OUT: 1.96 RPM ratio (pull-down/input)

IN: One more sequence: "GATGATTGTTCTCCCAGCTGATGAATTGATAAAATCGAGTAAACAAATTTTCCTAATCTTTCTGTTCAAGCGCCATCTAC"
OUT: 1.14 RPM ratio (pull-down/input)

IN: One more sequence: "GATGATTGTTCTCCCAGCTGATGAATTTTGTTAGTCGAGTAAACAAATTTTCCTAATCTTTCTGTTCAAGCGCCATCTAC"
OUT: 1.82 RPM ratio (pull-down/input)

IN: One more sequence: "GATGATTGTTCTCCCAGCTGATGAATTCTTTAGGTCGAGTAAACAAATTTTCCTAATCTTTCTGTTCAAGCGCCATCTAC"
OUT: 0.821 RPM ratio (pull-down/input)

IN: One more sequence: "GATGATTGTTCTCCCAGCTGATGAATTGTTTAGGTCGAGTAAACAAATTTTCCTAATCTTTCTGTTCAAGCGCCATCTAC"
OUT: 1.93 RPM ratio (pull-down/input)

IN: One more sequence: "GATGATTGTTCTCCCAGCTGATGAATTTGTTTTCTCGAGTAAACAAATTTTCCTAATCTTTCTGTTCAAGCGCCATCTAC"
OUT: 2.32 RPM ratio (pull-down/input)

IN: One more sequence: "GATGATTGTTCTCCCAGCTGATGAATTCTGGACATCGAGTAAACAAATTTTCCTAATCTTTCTGTTCAAGCGCCATCTAC"
OUT: 0.937 RPM ratio (pull-down/input)

IN: One more sequence: "GATGATTGTTCTCCCAGCTGATGAATTTGCTATTTCGAGTAAACAAATTTTCCTAATCTTTCTGTTCAAGCGCCATCTAC"
OUT: 1.17 RPM ratio (pull-down/input)

Attribution: paper PMC12820563
